# testTarget: recombinant M^Pro (Severe acute respiratory syndrome coronavirus 2, UniProt P0DTD1)
# protocolNotes: SARS-CoV-2 Mpro screening and IC50 determination (QS1 fluorogenic substrate, Drag assay)
# Format: biochemical
# conditionSummary: M^Pro IC50 (μM), recombinant M^Pro; Table 6
Please respond with reported IC50 for every item in the list.
Respond numerically; units are µM and should not be typed.

Enquiry: Please tell me: IC50 of COc1ccc(-c2ccc(C(=O)N[C@@H](CC3CCCCC3)C(=O)N[C@H](C#N)C[C@@H]3CCNC3=O)c(Cl)c2)cc1 [23c] , system recombinant M^Pro (Severe acute respiratory syndrome coronavirus 2, UniProt P0DTD1)?
Return: 0.077

Enquiry: Please tell me: IC50 of COc1cccc(-c2ccc(C(=O)N[C@@H](CC(C)C)C(=O)N[C@H](C#N)C[C@@H]3CCNC3=O)c(Cl)c2)c1 [18n] , system recombinant M^Pro (Severe acute respiratory syndrome coronavirus 2, UniProt P0DTD1)?
Return: 0.049

Enquiry: Please tell me: IC50 of COc1cccc(-c2ccc(C(=O)N3C[C@H]4[C@@H]([C@H]3C(=O)N[C@H](C#N)C[C@@H]3CCNC3=O)C4(C)C)c(Cl)c2)c1 [22f] , system recombinant M^Pro (Severe acute respiratory syndrome coronavirus 2, UniProt P0DTD1)?
Return: 0.12

Enquiry: Please tell me: IC50 of COc1ccc(-c2ccc(C(=O)N3C[C@H]4[C@@H]([C@H]3C(=O)N[C@H](C#N)C[C@@H]3CCNC3=O)C4(C)C)c(Cl)c2)cc1 [22e] , system recombinant M^Pro (Severe acute respiratory syndrome coronavirus 2, UniProt P0DTD1)?
Return: 0.087

----------
# testTarget: PL^Pro (Severe acute respiratory syndrome coronavirus 2, UniProt P0DTD1)
# protocolNotes: SARS-CoV-2 PLpro screening (Ac-LRGG-ACC substrate)
# Format: biochemical
# conditionSummary: read-out: PL^Pro (%inh)@10μM
resultType: inhibition at 10 µM

Enquiry: Please tell me: inhibition at 10 µM of Cn1cc2c(-c3ccc(C(=O)N[C@@H](CC4CCCCC4)C(=O)N[C@H](C#N)C[C@@H]4CCNC4=O)cc3)cccc2n1 [12n] , system PL^Pro (Severe acute respiratory syndrome coronavirus 2, UniProt P0DTD1)?
Return: < 50%

Enquiry: Please tell me: inhibition at 10 µM of CCCC(NC(=O)c1ccc(Br)cc1)C(=O)NC(C#N)CC1CCNC1=O (stereo not shown) [11c] , system PL^Pro (Severe acute respiratory syndrome coronavirus 2, UniProt P0DTD1)?
Return: < 50%

Enquiry: Please tell me: inhibition at 10 µM of CCC[C@H](NC(=O)c1ccc(-c2cccc(OCC)c2)cc1)C(=O)N[C@H](C#N)C[C@@H]1CCNC1=O [12i] , system PL^Pro (Severe acute respiratory syndrome coronavirus 2, UniProt P0DTD1)?
Return: < 50%

Enquiry: Please tell me: inhibition at 10 µM of N#CC(CC1CCNC1=O)NC(=O)C(CC1CCCCC1)NC(=O)c1ccc(Br)cc1 (stereo not shown) [11d] , system PL^Pro (Severe acute respiratory syndrome coronavirus 2, UniProt P0DTD1)?
Return: < 50%

Enquiry: Please tell me: inhibition at 10 µM of COc1ccc(-c2ccc(C(=O)N[C@@H](CC(C)C)C(=O)N[C@H](C#N)C[C@@H]3CCNC3=O)cc2)cc1 , system PL^Pro (Severe acute respiratory syndrome coronavirus 2, UniProt P0DTD1)?
Return: < 50%

Enquiry: Please tell me: inhibition at 10 µM of CCOc1ccc(-c2ccc(C(=O)N[C@@H](CC(C)C)C(=O)N[C@H](C#N)C[C@@H]3CCNC3=O)cc2)cc1F , system PL^Pro (Severe acute respiratory syndrome coronavirus 2, UniProt P0DTD1)?
Return: < 50%

Enquiry: Please tell me: inhibition at 10 µM of CCOc1cccc(-c2ccc(C(=O)N[C@@H](CC(C)C)C(=O)N[C@H](C#N)C[C@@H]3CCNC3=O)cc2)c1 , system PL^Pro (Severe acute respiratory syndrome coronavirus 2, UniProt P0DTD1)?
Return: < 50%

Enquiry: Please tell me: inhibition at 10 µM of CCC[C@H](NC(=O)c1ccc(-c2ccc(OC)cc2)cc1)C(=O)N[C@H](C#N)C[C@@H]1CCNC1=O [12f] , system PL^Pro (Severe acute respiratory syndrome coronavirus 2, UniProt P0DTD1)?
Return: < 50%

Enquiry: Please tell me: inhibition at 10 µM of CC(C)C[C@@H](NC(=O)c1ccc(-c2ccc(F)cc2)cc1)C(=O)N[C@H](C#N)C[C@@H]1CCNC1=O [12b] , system PL^Pro (Severe acute respiratory syndrome coronavirus 2, UniProt P0DTD1)?
Return: < 50%

Enquiry: Please tell me: inhibition at 10 µM of COc1ccc(-c2ccc(C(=O)N[C@@H](CC3CCCCC3)C(=O)N[C@H](C#N)C[C@@H]3CCNC3=O)cc2)cc1 [12l] , system PL^Pro (Severe acute respiratory syndrome coronavirus 2, UniProt P0DTD1)?
Return: < 50%

Enquiry: Please tell me: inhibition at 10 µM of CCC[C@H](NC(=O)c1ccc(-c2ccc(OC)c(OC)c2)cc1)C(=O)N[C@H](C#N)C[C@@H]1CCNC1=O [12g] , system PL^Pro (Severe acute respiratory syndrome coronavirus 2, UniProt P0DTD1)?
Return: < 50%

Enquiry: Please tell me: inhibition at 10 µM of N#C[C@H](C[C@@H]1CCNC1=O)NC(=O)[C@H](CC1CCCCC1)NC(=O)c1ccc(-c2cncc(Cl)c2)cc1 [12o] , system PL^Pro (Severe acute respiratory syndrome coronavirus 2, UniProt P0DTD1)?
Return: < 50%

Enquiry: Please tell me: inhibition at 10 µM of CCC[C@H](NC(=O)c1ccc(-c2cccc(OC)c2)cc1)C(=O)N[C@H](C#N)C[C@@H]1CCNC1=O [12e] , system PL^Pro (Severe acute respiratory syndrome coronavirus 2, UniProt P0DTD1)?
Return: < 50%

Enquiry: Please tell me: inhibition at 10 µM of CC(C)C[C@H](NC(=O)c1ccc(-c2ccc(F)cc2)cc1)C(=O)N[C@H](C#N)C[C@@H]1CCNC1=O , system PL^Pro (Severe acute respiratory syndrome coronavirus 2, UniProt P0DTD1)?
Return: < 50%

Enquiry: Please tell me: inhibition at 10 µM of CCC[C@H](NC(=O)c1ccc(-c2cncc(Cl)c2)cc1)C(=O)N[C@H](C#N)C[C@@H]1CCNC1=O [12h] , system PL^Pro (Severe acute respiratory syndrome coronavirus 2, UniProt P0DTD1)?
Return: < 50%

Enquiry: Please tell me: inhibition at 10 µM of CCOc1ccc(-c2ccc(C(=O)N[C@@H](CC(C)C)C(=O)N[C@H](C#N)C[C@@H]3CCNC3=O)cc2)cc1 , system PL^Pro (Severe acute respiratory syndrome coronavirus 2, UniProt P0DTD1)?
Return: < 50%
